Please provide measured T/C for the entries that follow.
Test system: CD2F1 mice, L1210 leukemia ip, survival T/C
measurement_protocol: NCI In Vivo Anticancer Drug Screen. Data for tumor model L1210 Leukemia (intraperitoneal) in CD2F1 (CDF1) mice
experimental_parameters: endpoint: mean survival time; dose: 400.0 mg/kg/injection; schedule: Q01DX009 (ip); vehicle: saline with Tween-80; higher = longer survival
Toxic doses and inconclusive results are not listed.

Examples from the recorded data:
{"molecule": "CCCCCCCC(=O)Oc1ccc(N=Nc2ccc(OCC)cc2)cc1", "T/C": "98 % of control"}
{"molecule": "CC(=O)/C(C)=C\\c1ccccc1", "T/C": "98 % of control"}
{"molecule": "CS/C(N)=N\\C(=S)Nc1ccccc1", "T/C": "101 % of control"}

I would be grateful if you could provide T/C for each of the following entries.
1. Cc1ccc(C(=O)CCCCl)c(C)c1
2. COc1cc(C2c3cc4c(cc3C(O)C(CO)C2CO)OCO4)cc(OC)c1OC (stereo not drawn)
3. C=CCCCCCCCCC(=O)NN1CCOCC1
4. O=C(O)CC[P+](c1ccccc1)(c1ccccc1)c1ccccc1
5. CC(=O)Nc1ccccc1C#N

stdout:
104 % of control
122 % of control
94 % of control
89 % of control
113 % of control

Hey, quick one: what's T/C for each of these?
1. O=C1c2ccccc2C(=O)N1CNc1ccc(Cl)cn1
2. Clc1ccc2c(c1)Cc1cc(N(CCBr)CCBr)ccc1-2
3. S=c1[nH]ccn1-c1cccc(Br)c1

stdout:
1: 86 % of control; 2: 110 % of control; 3: 112 % of control

Report T/C for every entry below.
1. COc1ccccc1C1(O)c2ccccc2Sc2cccc(OC)c21 (stereo not drawn)
2. CCCCCCCC(=O)Nc1ccc(C)c(C)c1

stdout:
1. 94 % of control
2. 96 % of control

* * *

Test system: CD2F1 mice, L1210 leukemia ip, survival T/C
measurement_protocol: NCI In Vivo Anticancer Drug Screen. Data for tumor model L1210 Leukemia (intraperitoneal) in CD2F1 (CDF1) mice
experimental_parameters: endpoint: mean survival time; dose: 25.0 mg/kg/injection; schedule: Q04DX003 (ip); vehicle: saline; higher = longer survival
Toxic doses and inconclusive results are not listed.
value_kind: T/C

Below, 5 compounds whose answers are already recorded.
{"compound": "CCOC(=O)NC(=S)n1ncnc1N", "T/C": "102 % of control"}
{"compound": "CC(C)c1ccc(C(=O)O)cc1S(=O)(=O)Cl", "T/C": "98 % of control"}
{"compound": "CC([NH-])C(=O)O.[Cl][Pt][Cl] (stereo not given)", "T/C": "121 % of control"}
{"compound": "NC(=O)CCC(=O)NCCN1CC1", "T/C": "97 % of control"}
{"compound": "CCCCCCCCCCP(=O)(OCCCC)OCCCC", "T/C": "102 % of control"}

Please report T/C for every entry that follows.
1. COc1ccc2c(c1OC)C1C3CC=CC3C2C2=[N+]1CCc1cc3c(cc12)OCO3 (stereo not given)
2. CN(C)CCCc1c2ccccc2nc2ccc(Cl)cc12
3. OCCOCCN1CCN(CC/C=C2\c3ccccc3Sc3ccc(C(F)(F)F)cc32)CC1

stdout:
1. 104 % of control
2. 94 % of control
3. 97 % of control

Hello, I would appreciate it if you could give T/C for each entry below.
1. CN(C)N=Nc1ccc(C(=O)O)cc1
2. c1ccc2c[n+]3cc4ccccc4cc3cc2c1

stdout:
1. 96 % of control
2. 97 % of control

* * *

Assignment: determine reported T/C for the given compounds.
Test system: CD2F1 mice, L1210 leukemia ip, survival T/C
measurement_protocol: NCI In Vivo Anticancer Drug Screen. Data for tumor model L1210 Leukemia (intraperitoneal) in CD2F1 (CDF1) mice
experimental_parameters: endpoint: mean survival time; dose: 75.0 mg/kg/injection; schedule: Q04DX003 (ip); vehicle: saline; higher = longer survival
Toxic doses and inconclusive results are not listed.

{"compound": "O=C(Nc1ccc([N+](=O)[O-])cc1)OC1CCS(=O)(=O)C1 (centres undefined)", "T/C": "102 % of control"}
{"compound": "CCSCCCCO", "T/C": "97 % of control"}
{"compound": "S=c1[nH]n(-c2ccccc2)c(=S)s1", "T/C": "100 % of control"}

Next compound, T/C to be filled in.
stdin: State its T/C for this compound: "CCC(O)(CC)c1ccc2ncccc2c1"
stdout: 98 % of control

* * *

What T/C was measured for each of the following?
Tested on: CD2F1 mice, L1210 leukemia ip, survival T/C
measurement_protocol: NCI In Vivo Anticancer Drug Screen. Data for tumor model L1210 Leukemia (intraperitoneal) in CD2F1 (CDF1) mice
experimental_parameters: endpoint: mean survival time; dose: 150.0 mg/kg/injection; schedule: Q01DX001 (ip); vehicle: saline; higher = longer survival
Inconclusive results and toxic doses are left out.

// below: answered molecules
{"molecule": "Nc1nc2nc(-c3ccccc3)nc(N)c2nc1-c1ccc(N(CCO)CCO)cc1", "endpoint_value": "96 % of control"}
{"molecule": "CCCCC(=O)C(=O)OC(OC(=O)C(=O)CCCC)c1ccccc1", "endpoint_value": "97 % of control"}
{"molecule": "Nc1nc(=S)c2ncn(C3OC(CO)C4OC43)c2[nH]1 (centres undefined)", "endpoint_value": "98 % of control"}
{"molecule": "CCCCCCCCCC(=O)N(C)C", "endpoint_value": "104 % of control"}
{"molecule": "CCSc1n[nH]c(=O)nc1SC", "endpoint_value": "96 % of control"}

For every item below, please supply its T/C.
1. Nc1cccc(OCc2nc(N)nc(N)c2-c2ccc(Cl)cc2)c1
2. NNc1nc(=O)[nH]nc1Sc1ccccc1
3. O=C1C=C(Nc2ccc([N+](=O)[O-])cc2Cl)c2ccccc2C1=O

stdout:
1: 91 % of control; 2: 101 % of control; 3: 101 % of control

Hey, can you go through the list below and give me T/C for every item?
1. Cc1cc2c(ccc3c2ccc2cccc(C)c23)c2ccccc12
2. CO[C@]12[C@@H](COC(=O)NCCO)C3=C(C(=O)C(C)=C(N)C3=O)N1C[C@@H]1[C@H]2N1C (some centres undefined)
3. CSc1nnc(Sc2ccccc2)c(SC)n1
4. CC1(C)N=C(N)N=C(N)N1c1cccc(C#N)c1
5. CN(C)N=C1CCCCCC1

stdout:
1: 88 % of control; 2: 116 % of control; 3: 98 % of control; 4: 113 % of control; 5: 98 % of control

stdin: Look up and state reported T/C for CCC1COCC1Cc1cncn1C (centres undefined)
stdout: 101 % of control

* * *

What T/C was measured for each of the following?
System: CD2F1 mice, L1210 leukemia ip, survival T/C
measurement_protocol: NCI In Vivo Anticancer Drug Screen. Data for tumor model L1210 Leukemia (intraperitoneal) in CD2F1 (CDF1) mice
experimental_parameters: endpoint: mean survival time; dose: 25.0 mg/kg/injection; schedule: Q04DX003 (ip); vehicle: distilled water + Tween-80; higher = longer survival
Inconclusive results and toxic doses are left out.

{"molecule": "O.[Cl][Pt].[S-]CCN1CCOCC1", "target": "CD2F1 mice, L1210 leukemia ip, survival T/C", "T/C": "98 % of control"}
{"molecule": "CC(=O)CC(=O)c1ccccc1.CC(=O)CC(=O)c1ccccc1.[Pd]", "target": "CD2F1 mice, L1210 leukemia ip, survival T/C", "T/C": "86 % of control"}
{"molecule": "CC([NH-])Cc1ccccc1.CC([NH-])Cc1ccccc1.[Cl][Pt+2][Cl] (centres undefined)", "target": "CD2F1 mice, L1210 leukemia ip, survival T/C", "T/C": "86 % of control"}

Could you now consider this next molecule?
stdin: Given "C1CC[N-]CC1.[Cl][Pt+2][Cl].[NH-]C1CC1" , respond with its T/C.
stdout: 90 % of control

* * *

Tested on: CD2F1 mice, L1210 leukemia ip, survival T/C
measurement_protocol: NCI In Vivo Anticancer Drug Screen. Data for tumor model L1210 Leukemia (intraperitoneal) in CD2F1 (CDF1) mice
experimental_parameters: endpoint: mean survival time; dose: 75.0 mg/kg/injection; schedule: Q01DX001 (ip); vehicle: saline; higher = longer survival
Experimental: The antitumor activity of compounds was measured in mice bearing transplantable tumors. Survival or tumor size were measured and the results are expressed as the measurement made in the treated group (T) divided by the measurement made in the vehicle treated control group (C). The tumor model used in this assay is L1210 Leukemia (intraperitoneal) in CD2F1 (CDF1) mice
Toxic doses and inconclusive results are not listed.
value_kind: T/C

{"compound": "CN(CCC(=O)N(C)CCC1CCCCC1)CCC1CCCCC1", "T/C": "98 % of control"}
{"compound": "CCCC[As](=O)(O)C(C)C", "T/C": "111 % of control"}
{"compound": "CCC1(C)CC(=O)NC1=O (stereo unspecified)", "T/C": "98 % of control"}
{"compound": "CNc1nc2cc(C)c(C)cc2n1C1OC(CO)C(O)C1O (stereo unspecified)", "T/C": "111 % of control"}
{"compound": "O=C1C=C(Nc2ccc([N+](=O)[O-])cc2Cl)c2ccccc2C1=O", "T/C": "100 % of control"}

Now consider a different compound.
stdin: Give recorded T/C. "CN(C=O)NC(=O)Nc1ccccc1"
stdout: 100 % of control
